Sourced from the Immune Epitope Database (IEDB)

biological target: HLA-A*02:01; assay: IEDB peptide-MHC binding, cellular MHC/competitive/fluorescence; bounds were set here for any values at or beyond the usual limits of such assays; settings: source organism: Vaccinia virus WR
Quick reference: IC50 of the listed items.
ASSAY_METRIC: IC50 (µM)

RESIDUE_SEQUENCE	INEQUALITY_SIGN	REPORTED_RESULT
LVDKEDTDIV	≥	70
TISMLIEVIL	≥	70
IVEHLRDQSI	≥	70
TTSSREERVL	≥	70
DQSIKIGDI	≥	70
FASADNHPKM	≥	70
NAKCIEYVT	≥	70
PTELKETLL	≥	70
VTLNASQYA	=	5.01
KVYNGIFVDT	=	11.8
TTPLISFFGL	=	27.3
SIENKHQRRL	≥	70
GVIFLISVIV	=	5.83
IIYSKAGNI	=	50.7
DLVVLGKVT	=	53.3
